Test system: 616215-338-R-J1-PDC complex spheroids, viability % test/control;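 also: spheroids exposed to agents for 7 days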
Assay: Anticancer human tumor 616215-338-R-J1-PDC patient-derived colon adenocarcinoma cell line growth inhibition [CLK]
Conditions: curve of first compound; second compound 0.0316 µM
For each entry below, report its IC50 value.
Your answer should be a plain number; it is taken to be in nM.

Input line: IC50 lookup needed for O=c1[nH]cc(F)c(=O)[nH]1 + CN1CCN(c2cc(C(=O)Nc3cc4cc(-c5cnn(C)c5)ccc4cn3)ccn2)CC1 , thanks.
Output line: 796

Input line: Query C=C(F)C(=O)N1CCN(c2nc(OCC3CCCN3C)nc3c2CCN(c2cccc4cccc(Cl)c24)C3)CC1CC#N (stereo unspecified) + CN1CCN(c2cc(C(=O)Nc3cc4cc(-c5cnn(C)c5)ccc4cn3)ccn2)CC1 next
Output line: 5870

Input line: NC(=O)C(=Cn1cnc(-c2cc(C(F)(F)F)cc(C(F)(F)F)c2)n1)c1cncnc1 + CNC(=O)c1ccc(Nc2nc(OC3CCCC3)c3c(-c4ccc5nc(C)oc5c4)c[nH]c3n2)c(OC)c1 ?
Output line: 651

Input line: Item: Nc1ccccc1NC(=O)c1ccc(CNC(=O)OCc2cccnc2)cc1 + CN1CCN(c2cc(C(=O)Nc3cc4cc(-c5cnn(C)c5)ccc4cn3)ccn2)CC1
Output line: 4240

Input line: Now this one: CCCS(=O)(=O)Nc1ccc(F)c(C(=O)c2c[nH]c3ncc(-c4ccc(Cl)cc4)cc23)c1F + CN1CCN(c2cc(C(=O)Nc3cc4cc(-c5cnn(C)c5)ccc4cn3)ccn2)CC1
Output line: 1510

Input line: Note, next up: COc1c(OCCCN2CCOCC2)ccc2c3n(c(=NC(=O)c4cnc(N)nc4)nc12)CCN3 + CNC(=O)c1ccc(Nc2nc(OC3CCCC3)c3c(-c4ccc5nc(C)oc5c4)c[nH]c3n2)c(OC)c1
Output line: 208

Input line: Note, next up: COC1C=CCC(C)C(C)S(=O)(=O)NC(=O)c2ccc3c(c2)N(CC2CCC21)CC1(CCCc2cc(Cl)ccc21)CO3 (stereo unspecified) + CN1CCN(c2cc(C(=O)Nc3cc4cc(-c5cnn(C)c5)ccc4cn3)ccn2)CC1
Output line: 2360

Input line: Follow-up item: NC(=O)C(=Cn1cnc(-c2cc(C(F)(F)F)cc(C(F)(F)F)c2)n1)c1cncnc1 + CN1CCN(c2cc(C(=O)Nc3cc4cc(-c5cnn(C)c5)ccc4cn3)ccn2)CC1
Output line: 220

Input line: Consider next the compound CC1(C)CCC(CN2CCN(c3ccc(C(=O)NS(=O)(=O)c4ccc(NCC5CCOCC5)c([N+](=O)[O-])c4)c(Oc4cnc5[nH]ccc5c4)c3)CC2)=C(c2ccc(Cl)cc2)C1 + CN1CCN(c2cc(C(=O)Nc3cc4cc(-c5cnn(C)c5)ccc4cn3)ccn2)CC1 in the same way.
Output line: 5820

Input line: Next entry: COc1c(OCCCN2CCOCC2)ccc2c3n(c(=NC(=O)c4cnc(N)nc4)nc12)CCN3 + CN1CCN(c2cc(C(=O)Nc3cc4cc(-c5cnn(C)c5)ccc4cn3)ccn2)CC1
Output line: 86.6

Input line: What would you report for CCc1c2c(nc3ccc(O)cc13)-c1cc3c(c(=O)n1C2)COC(=O)[C@]3(O)CC + CN1CCN(c2cc(C(=O)Nc3cc4cc(-c5cnn(C)c5)ccc4cn3)ccn2)CC1 ?
Output line: 9.64
